- procedure_summary: solvent given as SMILES
- condition_details: in C1CCCCC1
observed_property: absorption maximum (nm)
Your answer should be a plain number; it is taken to be in nm.

>  <compound>
O=C1C=C(Nc2ccccc2)CCC1

>  <absorption maximum [nm]>
295

$$$$
>  <compound>
Cc1ccccc1[B-]1(c2ccccc2C)n2nc(C(F)(F)F)cc2-c2c3ccccc3cc[n+]21

>  <absorption maximum [nm]>
374

$$$$
>  <compound>
CCCC1(CCC)c2cc(-c3ccc4c(c3)C(CCC)(CCC)c3cc(C(C)(C)CC)ccc3-4)ccc2-c2ccc(-c3ccc4c(c3)C(CCC)(CCC)c3cc(C(C)(C)CC)ccc3-4)cc21

>  <absorption maximum [nm]>
351

$$$$

input: Could you share which absorption maximum value was measured for C1=Cc2ccc3ccccc3c2NB1c1ccccc1 ?
output: 360

input: Could you share which absorption maximum value was measured for CN(C)c1ccc2c3c(ccc2c1)C(=O)CCC3 ?
output: 347

input: Could you share which absorption maximum value was measured for O=P1(c2ccccc2)C(c2cc(C(F)(F)F)cc(C(F)(F)F)c2)=Cc2c3ccc4cccc5ccc(c6cc(-c7ccccc7)n1c26)c3c45 (stereo not drawn) ?
output: 451

input: Could you share which absorption maximum value was measured for CN(C)c1ccc2nc3c(cc2c1)c(-c1ccccc1)nn3-c1ccccc1 ?
output: 439.56

input: Could you share which absorption maximum value was measured for COOCc1noc(-c2ccccc2)c1Cl ?
output: 277

Where do the numbers come from? From the Deep4Chem optical property database.
